test: Pharmacokinetic Determination (Mouse PK); assay type: in vivo, female CD-1 mice; settings: female, CD-1, plasma, IV, 3.0 mg/kg
Just a reminder that ties go to not satisfied: only clearance strictly below 60 mL/min/kg counts as satisfied.

Solved entries (count: 5):
MOLECULE | LABEL CLASS
C[C@@H]1Cc2c([nH]c3ccccc23)[C@@H](c2c(F)cc(O[C@@H]3CCN(CCCF)C3)cc2F)N1C12CC(C1)C2 (single isomer, unassigned) | satisfied
CCCN1CC(Oc2ccc([C@@H]3c4[nH]c5ccccc5c4C[C@@H](C)N3C34CC(C3)C4)cc2)C1 | not satisfied
C[C@@H]1Cc2c([nH]c3ccccc23)[C@@H](c2ccc(NC3CN(CCCF)C3)cc2)N1C12CC(C1)C2 | not satisfied
C[C@@H]1Cc2c([nH]c3ccccc23)[C@@H](c2ccc(NC3CN(CCCF)C3)cn2)N1C12CC(C1)C2 | satisfied
C[C@@H]1Cc2c([nH]c3ccccc23)[C@@H](c2c(F)cc(N[C@H]3CCN(CCCF)C3)cc2F)N1C12CC(CO)(C1)C2 (single isomer, unassigned) | satisfied

IN: # strict comparison: is reported clearance < 60 mL/min/kg? input = C[C@@H]1Cc2c([nH]c3ccccc23)[C@@H](c2c(F)cc(O[C@H]3CCN(CCCF)C3)cc2F)N1C12CC(C1)C2 (single isomer, unassigned)
OUT: satisfied

IN: # strict comparison: is reported clearance < 60 mL/min/kg? input = C[C@@H]1Cc2c([nH]c3ccccc23)[C@@H](c2ccc(NC3CN(CCCF)C3)cc2)N1C12CC(CO)(C1)C2 (single isomer, unassigned)
OUT: not satisfied

IN: # strict comparison: is reported clearance < 60 mL/min/kg? input = `C[C@@H]1Cc2c([nH]c3ccccc23)[C@@H](c2c(F)cc(N[C@H]3CCN(CCCF)C3)cc2F)N1C12CC(C1)C2`
OUT: satisfied

IN: # strict comparison: is reported clearance < 60 mL/min/kg? input = C[C@@H]1Cc2c([nH]c3ccccc23)[C@@H](c2ccc(O[C@H]3CCN(CCCF)C3)nc2)N1C12CC(C1)C2 (single isomer, unassigned)
OUT: not satisfied

IN: # strict comparison: is reported clearance < 60 mL/min/kg? input = `C[C@@H]1Cc2c([nH]c3ccccc23)[C@@H](c2ccc(NC3CN(CCCF)C3)cc2F)N1C12CC(C1)C2`
OUT: not satisfied
